The reported measurements were obtained from patent US20200247761A1.

inhibition at 10 µM by entry:
# Tested on: mTNF-α secretion from LPS-stimulated RAW264.7 monocytes
# Assay Overview: LPS induced mTNF-α release from RAW264.7 cells (ELISA)
# Assay type: cell-based
# Measurement Context: Mus musculus; Test Con. 10 μM; LPS 10 ng/ml, 4 hours; RAW264.7 cells; read-out: mTNF-α inhibition (%) mean
# value in %; strip the unit string

Worked set:
Compound | Output Unit | Numeric Result
C=CC(=O)N(c1ccc(F)cc1Cl)S(=O)(=O)N1CCCCC1C(=O)OC (centres unmarked) | % | 97.2
C=CC(=O)N(c1ccc(F)cc1Cl)S(=O)(=O)N1CCOC1=O | % | 97.1
C=C(C)C(=O)N(c1ccc(F)cc1Cl)S(=O)(=O)c1ccccc1 | % | 70.9

inhibition at 10 µM lookup needed for C=CC(=O)N(C1CC1)S(=O)(=O)c1ccc(F)cc1Cl , thanks.
99.7

Another compound to look at: C=CC(=O)N(c1ccc(F)cc1Cl)S(=O)(=O)Cc1ccccc1
13

----------
# Assayed System: Toll-like receptor 4 (TLR4) (Homo sapiens, UniProt O00206)
# Construct: expressed in transfected cells; host or cells: HEK293 cells engineered to express TLR4
# Sequence (O00206 24-839, species assumed): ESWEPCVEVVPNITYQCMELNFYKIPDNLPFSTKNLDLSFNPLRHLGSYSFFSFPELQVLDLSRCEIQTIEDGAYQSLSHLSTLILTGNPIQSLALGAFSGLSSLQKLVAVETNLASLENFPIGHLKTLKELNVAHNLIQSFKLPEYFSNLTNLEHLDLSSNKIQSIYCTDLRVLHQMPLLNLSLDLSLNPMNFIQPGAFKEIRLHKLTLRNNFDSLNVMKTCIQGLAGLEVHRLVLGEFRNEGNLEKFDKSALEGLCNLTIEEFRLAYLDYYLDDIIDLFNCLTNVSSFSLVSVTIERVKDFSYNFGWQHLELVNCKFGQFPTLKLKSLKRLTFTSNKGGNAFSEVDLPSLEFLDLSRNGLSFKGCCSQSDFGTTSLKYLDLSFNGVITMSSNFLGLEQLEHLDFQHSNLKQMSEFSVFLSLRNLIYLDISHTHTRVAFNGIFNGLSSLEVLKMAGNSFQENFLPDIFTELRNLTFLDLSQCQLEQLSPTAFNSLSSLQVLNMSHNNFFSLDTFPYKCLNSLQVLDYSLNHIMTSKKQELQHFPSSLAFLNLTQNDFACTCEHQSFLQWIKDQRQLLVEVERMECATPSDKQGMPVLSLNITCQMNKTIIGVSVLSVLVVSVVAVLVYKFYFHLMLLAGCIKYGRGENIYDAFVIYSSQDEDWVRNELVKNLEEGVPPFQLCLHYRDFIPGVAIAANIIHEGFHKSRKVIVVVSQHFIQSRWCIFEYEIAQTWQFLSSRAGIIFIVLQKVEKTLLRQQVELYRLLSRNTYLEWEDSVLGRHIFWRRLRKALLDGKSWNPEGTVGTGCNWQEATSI
# Sequence (Q9Y6Y9 17-160 partner limits assumed, species assumed): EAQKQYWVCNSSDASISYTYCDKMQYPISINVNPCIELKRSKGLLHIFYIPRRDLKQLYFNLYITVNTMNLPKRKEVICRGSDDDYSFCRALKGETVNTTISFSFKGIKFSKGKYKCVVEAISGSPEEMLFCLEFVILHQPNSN
# Assay Overview: TLR4 activity: NF-κB-inducible SEAP reporter in LPS-stimulated TLR4-expressing HEK293 cells
# Assay type: cell-based
# Measurement Context: Test Con. 10 μM; LPS 10 ng/ml; 16-24 hours; HEK293 cells expressing TLR4; read-out: TLR-4 inhibition (%) mean
Answer Condition not met if inhibition at 10 µM is under 80%, and Condition met if it is 80% or more.

Solved entries (count: 5):
Compound | Cat
C=C(C)C(=O)Nc1ccccc1S(=O)(=O)Nc1ccc(F)cc1Cl | Condition not met
C=CC(=O)N(c1ccc(F)cc1Cl)S(=O)(=O)Cc1ccccc1 | Condition not met
C=CC(=O)N(c1ccc(F)cc1Cl)S(=O)(=O)N1CCOC1=O | Condition met
C=CC(=O)N1CCC[C@@H]1C(=O)Nc1ccc(F)cc1Cl | Condition not met
C=CC(=O)N(c1ccc(F)cc1Cl)S(=O)(=O)c1c(C)noc1C | Condition met

Next up:
Record C=CC(=O)Nc1ccccc1S(=O)(=O)Nc1ccc(F)cc1Cl ; criterion: inhibition at 10 µM no lower than 80%. Met?
Condition met

----------
inhibition at 10 µM by entry:
# Test system: mTNF-α secretion from LPS-stimulated RAW264.7 monocytes
# Assay Overview: LPS induced mTNF-α release from RAW264.7 cells (ELISA)
# Format: cell-based
# Measurement Context: Mus musculus; Test Con. 10 μM; LPS 10 ng/ml, 4 hours; RAW264.7 cells; read-out: mTNF-α inhibition (%) mean
# value in %; strip the unit string

Chemical String | Numeric Result
C=CC(=O)N(c1ccc(F)cc1Cl)S(=O)(=O)N1CCC[C@H]1C(=O)OC | 98.8
C=CC(=O)N(c1ccc(F)cc1Cl)S(=O)(=O)c1ccccc1C(=O)OC | 96
C=CC(=O)N(c1ccc(F)cc1Cl)S(=O)(=O)c1ccccc1 | 96.1
C=CC(=O)N(c1ccc(F)cc1Cl)S(=O)(=O)c1c(C)oc(C)c1C(=O)OC | 98.6
C=C(C)C(=O)Nc1ccccc1S(=O)(=O)Nc1ccc(F)cc1Cl | 41.1

inhibition at 10 µM lookup needed for C=CC(=O)N(c1ccc(F)cc1Cl)S(=O)(=O)c1c(C)noc1C , thanks.
98.5

Another molecule to look at: C=CC(=O)N(c1ccc(F)cc1Cl)S(=O)(=O)c1ccc(F)cc1Cl
82.9

Another molecule to look at: C=CC(=O)Nc1ccccc1S(=O)(=O)Nc1ccc(F)cc1Cl
94.1

Another molecule to look at: C=CC(=O)N(c1ccc(F)cc1Cl)S(=O)(=O)c1ccccc1S(C)(=O)=O
97.5
